- Method Description: Gastric ulceration (gastric irritation test)
- Set-up: species or system Wistar male rats
- Assay Context: rat, in vivo, po, Table 3; rats, orally, six hours after administration; read-out: UD50
Response field label takes Criterion met when TD50 at 6 h is strictly below 3 mg/kg and Criterion not met in all other cases.

Some solved cases for reference:
[
  {
    "Compound": "CC(=O)OCOC(=O)C(C)c1ccc(-c2ccccc2)c(F)c1 (stereo not drawn)",
    "Assigned Category": "Criterion not met"
  },
  {
    "Compound": "CC(=O)OCCOC(=O)C(C)c1ccc(-c2ccccc2)c(F)c1 (stereo not drawn)",
    "Assigned Category": "Criterion met"
  },
  {
    "Compound": "CCC(=O)OCOC(=O)C(C)c1ccc(-c2ccccc2)c(F)c1 (stereo not drawn)",
    "Assigned Category": "Criterion met"
  },
  {
    "Compound": "CCCCCCCCCCCCCCCC(=O)OCOC(=O)C(C)c1ccc(-c2ccccc2)c(F)c1 (stereo not drawn)",
    "Assigned Category": "Criterion not met"
  },
  {
    "Compound": "C/C=C/C(=O)OCOC(=O)C(C)c1ccc(-c2ccccc2)c(F)c1 (stereo not drawn)",
    "Assigned Category": "Criterion met"
  }
]

Query block: Please indicate whether the reported TD50 at 6 h of CC(C)C(=O)OCOC(=O)C(C)c1ccc(-c2ccccc2)c(F)c1 (stereo not drawn) is strictly below 3 mg/kg.
Result block: Criterion met

Query block: # TODO verify TD50 at 6 h < 3 mg/kg strictly for this compound: CCC(=O)OCCOC(=O)C(C)c1ccc(-c2ccccc2)c(F)c1 (stereo not drawn)
Result block: Criterion met

Query block: Decide: TD50 at 6 h of CC(C)=CC(=O)OCOC(=O)C(C)c1ccc(-c2ccccc2)c(F)c1 (stereo not drawn) strictly below 3 mg/kg?
Result block: Criterion met

Query block: Hello, I'm reviewing records and need to know if TD50 at 6 h of COc1ccc2c(c1)c(CC(=O)O)c(C)n2C(=O)c1ccc(Cl)cc1 [indomethacin, reference compound] is below 3 mg/kg. Could you check?
Result block: Criterion not met

Query block: Input CC(C(=O)OCOC(=O)C(C)(C)C)c1ccc(-c2ccccc2)c(F)c1 (stereo not drawn) ; condition: TD50 at 6 h strictly below 3 mg/kg. Does it hold?
Result block: Criterion met

Query block: API: query returns whether the compound falls strictly under 3 mg/kg in TD50 at 6 h. Query: CC(C(=O)O)c1ccc(-c2ccccc2)c(F)c1 (stereo not drawn) [FP, 2-(2-fluoro-4-biphenylyl)propionic acid, reference compound]
Result block: Criterion met
